conditions: human gut metagenome, 24 h, 2 µM; also: call rule not given here
assay-endpoint: Bacterial Biotransformation

CCC(=O)NCC[C@@H]1CCc2ccc3c(c21)CCO3 [RAMELTEON] | Compound metabolized
O=P(O)(O)O.c1ccc(CN(CC2=NCCN2)c2ccccc2)cc1 [ANTAZOLINE PHOSPHATE] | Compound NOT metabolized
O=C(O)COCCN1CCN(C(c2ccccc2)c2ccc(Cl)cc2)CC1 (centres undefined) [CETIRIZINE] | Compound metabolized
CC(C)(C#N)c1cc(Cn2cncn2)cc(C(C)(C)C#N)c1 [ANASTROZOLE] | Compound NOT metabolized
c1ccc([C@H]2CN3CCSC3=N2)cc1 [LEVAMISOLE] | Compound metabolized

Lookup result for CN/C(=N/CCSCc1nc[nH]c1C)NC#N [CIMETIDINE] ; measured Bacterial Biotransformation: Compound metabolized

Per the record, CN1CCC(=C2c3ccccc3CCc3cccnc32)CC1.O=C(O)/C=C\C(=O)O.O=C(O)/C=C\C(=O)O [AZATADINE MALEATE] has Bacterial Biotransformation of Compound metabolized

Reported Bacterial Biotransformation of CN1CCN(CC/C=C2/c3ccccc3Sc3ccc(S(=O)(=O)N(C)C)cc32)CC1 [THIOTHIXENE] : Compound metabolized

Per the record, NC(=O)N1c2ccccc2CC(=O)c2ccccc21 [OXCARBAZEPINE] has Bacterial Biotransformation of Compound NOT metabolized
